Origin of the recorded values: ChEMBL document CHEMBL1201862

Test system: K562
ASSAY REMARKS: NCI tumour cell line growth inhibition, 48 h
Calls of active or inactive are those of the source. Rule as the data show it: active = GI50 up to about 1.1 µM and inactive = higher.
OUTCOME MEASURE: GI50

{"COMPOUND": "C=C=CC(NC(=O)c1ccccc1)(C(=O)O)C(F)(F)F (stereo not given)", "TARGET SYSTEM": "K562", "RESULT": "> 100 µM (inactive)"}

Prompt: # GI50 lookup, item Cn1c2ccccc2n2c3ccccc3c(=O)c(C#N)c12
Response: 9.79 µM (inactive)

Prompt: One more compound: O=C(O)CCC(NC(=O)/C(=C/c1ccccc1)NC(=O)c1ccccc1)C(=O)O (stereo not given)
Response: > 100 µM (inactive)

Prompt: One more compound: CC(/C=C/c1ccccc1)=N\NC(=S)N/N=C(C)/C=C/c1ccccc1
Response: 4.86 µM (inactive)

Prompt: One more compound: COc1ccc2ccccc2c1CN1CCOCCOCCN(Cc2c(OC)ccc3ccccc23)CCOCCOCC1
Response: > 25.6 µM (inactive)

---

Examples of molecules with documented GI50 follow.
Tested on: IGROV-1
ASSAY REMARKS: NCI tumour cell line growth inhibition, 48 h
Calls of active or inactive are those of the source. No stated cut-off is given here; in the data, active = GI50 up to about 1.1 µM and inactive = higher.

Examples with their reported GI50 follow.
{"MOLECULE": "CCOC(=O)C1(Cc2ccccc2)Cc2ccccc2C1=O (stereo not given)", "GI50": "35.2 µM (inactive)"}
{"MOLECULE": "CC1=C(C(=O)Nc2ccccc2)C(c2ccc(C(C)C)cc2)C(C(=O)Nc2ccccc2)=C(C)N1", "GI50": "23.2 µM (inactive)"}
{"MOLECULE": "COc1cc(OC)cc(C(=O)CC(=O)c2cc(OC)cc(OC)c2)c1", "GI50": "> 100 µM (inactive)"}
{"MOLECULE": "COC(=O)[C@H](Cc1ccccc1)NC(=O)N(CCN(CCC#N)C(=O)N[C@H](C(=O)OC)C(C)C)c1ccccc1", "GI50": "57.5 µM (inactive)"}

Then there is this molecule:
Prompt: # GI50 lookup, item Cc1ccccc1/N=N/c1c(O)c(S(=O)(=O)O)cc2cc(S(=O)(=O)O)ccc12
Response: > 100 µM (inactive)

---

System: SR
ASSAY REMARKS: NCI tumour cell line growth inhibition, 48 h
Active and inactive are the calls of the source. Cut-off read from the data, not from the text of the source: active = GI50 up to about 1.1 µM and inactive = higher.
Return exactly one item of 1 (yes) (active), 0 (no) (inactive)

{"COMPOUND": "Nc1ncnc2c1ncn2[C@@H]1O[C@H](COC(c2ccccc2)(c2ccccc2)c2ccccc2)[C@@H](OC(=S)Oc2ccccc2)[C@@H]1F", "CLASS": "0 (no)"}
{"COMPOUND": "CCOC(=O)c1c(N2CCCC2)ncn(Cc2ccccc2)c1=S", "CLASS": "0 (no)"}
{"COMPOUND": "COC(=O)C1=C(c2cc(OC)c(OC)c(OC)c2)OC(c2ccc(OC)c(OC)c2)C1 (stereo not drawn)", "CLASS": "0 (no)"}

Prompt: Which outcome was entered for the compound CC(NC(=O)C(NC(=O)C(NC(=O)C(F)(F)F)C(C)C)C(C)C)C(=O)Oc1c(Cl)c(Cl)c(Cl)c(Cl)c1Cl (stereo not drawn) in this test?
Response: 0 (no)

Prompt: One more compound: O=C(O)c1ccc(C(=O)c2ccccc2)c(C(=O)O)c1
Response: 0 (no)

Prompt: One more compound: CCN(CC)c1nc(NC2CCCCC2)c2nc(N(CC)CC)nc(NC3CCCCC3)c2n1
Response: 0 (no)

Prompt: One more compound: CCCCCc1cc2cc3c(c(O)c2c(=O)[nH]1)C1(CCC3)C(=O)c2c(O)ccc(O)c2C1=O
Response: 0 (no)

Prompt: One more compound: c1ccc2c(c1)[nH]c1c[nH]c3c4cccnc4nc-3c12
Response: 0 (no)
